For each entry below, report its Enzyme degradation CDK9 (% remaining) @ 0.1 μM value.
system_name: CDK9 (Homo sapiens, UniProt P50750)
Construct: endogenous in cells; host or cells: MDA-MB-231
Sequence (P50750 whole entry): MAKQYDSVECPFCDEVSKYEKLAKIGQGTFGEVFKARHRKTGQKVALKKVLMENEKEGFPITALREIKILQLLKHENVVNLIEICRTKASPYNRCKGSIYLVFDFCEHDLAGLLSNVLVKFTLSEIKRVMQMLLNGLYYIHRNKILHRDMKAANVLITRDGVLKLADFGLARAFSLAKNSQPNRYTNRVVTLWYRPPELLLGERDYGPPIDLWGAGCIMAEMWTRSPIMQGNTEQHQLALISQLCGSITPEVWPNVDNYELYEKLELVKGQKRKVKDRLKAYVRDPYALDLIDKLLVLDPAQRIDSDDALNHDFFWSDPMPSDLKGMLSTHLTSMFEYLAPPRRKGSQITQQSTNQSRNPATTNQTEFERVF
method_description: CDK protein degradation activity (Western blotting), CDK9
Format: cell-based
measurement_context: MDA-MB-231 cells, 0.1 μM, 16 hours, Western blot

## Task For O=C1CC[C@H](n2nnc3ccc(N4CCC(CN5CCN(c6ccc(Nc7ncnc8c7ncn8C7CC(NC(=O)Cc8ccccc8)C7)cc6)CC5)CC4)cc3c2=O)C(=O)N1 (some centres unmarked) , what is its reported Enzyme degradation CDK9 (% remaining) @ 0.1 μM?
## Result 0/0/0%

## Task For O=C1CC[C@H](N2C(=O)c3cccc(N4CC(CN5CCC6(CC5)CC(N5CCN(c7ccc(Nc8ncnc9c8ncn9[C@H]8C[C@@H](NC(=O)Cc9ccccc9)C8)cc7)CC5)C6)C4)c3C2=O)C(=O)N1 , what is its reported Enzyme degradation CDK9 (% remaining) @ 0.1 μM?
## Result 40%

## Task For Cc1cccc(C(=O)N[C@H]2C[C@@H](n3cnc4c(NC5CCN(CCCN6CCN(C(=O)CNc7cccc8c7C(=O)N([C@H]7CCC(=O)NC7=O)C8=O)CC6)CC5)ncnc43)C2)n1 , what is its reported Enzyme degradation CDK9 (% remaining) @ 0.1 μM?
## Result 0/0/0%

## Task For Cc1cccc(C(=O)NC2CC(n3cnc4c(NCCC5CCN(CC6CCN(C(=O)C7CN(c8ccc9c(c8)C(=O)N([C@H]8CCC(=O)NC8=O)C9=O)C7)CC6)CC5)ncnc43)C2)n1 (some centres unmarked) , what is its reported Enzyme degradation CDK9 (% remaining) @ 0.1 μM?
## Result 0/0/0%

## Task For O=C1CC[C@H](N2C(=O)c3cc(F)c(N4CCC(CN5CCN(c6ccc(Nc7ncnc8c7ncn8[C@H]7C[C@@H](NC(=O)c8cccc(Cl)n8)C7)cc6)CC5)CC4)cc3C2=O)C(=O)N1 , what is its reported Enzyme degradation CDK9 (% remaining) @ 0.1 μM?
## Result 10/10/10%

## Task For O=C1CCC(N2C(=O)c3ccc(N4CCC(CCN5CCN(c6ccc(Nc7ncnc8c7ncn8[C@H]7C[C@@H](NC(=O)Cc8ccccc8)C7)cc6)CC5)CC4)cc3C2=O)C(=O)N1 (some centres unmarked) , what is its reported Enzyme degradation CDK9 (% remaining) @ 0.1 μM?
## Result 0/0/0%

## Task For Cc1cccc(C(=O)N[C@H]2C[C@@H](n3cnc4c(Nc5ccc(N6CCN(CCC7CCN(c8ccc9nnn([C@H]%10CCC(=O)NC%10=O)c(=O)c9c8)CC7)CC6)cc5)ncnc43)C2)n1 , what is its reported Enzyme degradation CDK9 (% remaining) @ 0.1 μM?
## Result 0/0/0%

## Task For O=C1CC[C@H](N2C(=O)c3cc(F)c(N4CCC(CN5CCN(c6ccc(Nc7ncnc8c7ncn8C7CC(NC(=O)c8c(Cl)cccc8Cl)C7)cc6)CC5)CC4)cc3C2=O)C(=O)N1 (some centres unmarked) , what is its reported Enzyme degradation CDK9 (% remaining) @ 0.1 μM?
## Result 0/0/0%

---

system_name: CDK2 (Homo sapiens, UniProt P24941)
Construct: endogenous in cells; host or cells: MDA-MB-231
method_description: CDK protein degradation activity (Western blotting), CDK2
Type: cell-based
measurement_context: MDA-MB-231 cells, 0.1 μM, 16 hours, Western blot
outcome_measure: Enzyme degradation CDK2 (% remaining) @ 0.1 μM

## Task For O=C1CCC(N2C(=O)c3cccc(NCC(=O)N4CCC(CN5CCN(c6ccc(Nc7ncnc8c7ncn8[C@H]7C[C@@H](NC(=O)Cc8ccccc8)C7)cc6)CC5)CC4)c3C2=O)C(=O)N1 (some centres unmarked) [Compound 176] , what is its reported Enzyme degradation CDK2 (% remaining) @ 0.1 μM?
## Result 0/0/0%

## Task For Cc1cccc(C(=O)N[C@H]2C[C@@H](n3cnc4c(NCc5ccc(OCCCN6CCN(C(=O)CNc7cccc8c7C(=O)N([C@H]7CCC(=O)NC7=O)C8=O)CC6)cc5)ncnc43)C2)n1 [Compound 115] , what is its reported Enzyme degradation CDK2 (% remaining) @ 0.1 μM?
## Result 30%

## Task For O=C1CC[C@@H](c2ccc(OCC(=O)N3CCN(CCCN4CCN(c5ccc(Nc6ncnc7c6ncn7C6CC(NC(=O)Cc7ccccc7)C6)cc5)CC4)CC3)cc2)C(=O)N1 (some centres unmarked) [Compound 236] , what is its reported Enzyme degradation CDK2 (% remaining) @ 0.1 μM?
## Result 50/50/50%

## Task For Cc1cccc(C(=O)N[C@H]2C[C@@H](n3cnc4c(Nc5ccc(N6CCN(CC7CCN(C(=O)C8CN(c9ccc%10c(c9)C(=O)N([C@H]9CCC(=O)NC9=O)C%10=O)C8)CC7)CC6)cc5)ncnc43)C2)n1 [Compound 401] , what is its reported Enzyme degradation CDK2 (% remaining) @ 0.1 μM?
## Result 30%

## Task For Cc1cccc(C(=O)N[C@H]2C[C@@H](n3cnc4c(NC5CCN(CCOC6CCN(c7ccc8c(c7)C(=O)N([C@H]7CCC(=O)NC7=O)C8=O)CC6)CC5)ncnc43)C2)n1 [Compound 47] , what is its reported Enzyme degradation CDK2 (% remaining) @ 0.1 μM?
## Result 100/100/100%

---

system_name: CDK9 (Homo sapiens, UniProt P50750)
Construct: endogenous in cells; host or cells: MDA-MB-231
method_description: CDK protein degradation activity (Western blotting), CDK9
Assay type: cell-based
measurement_context: MDA-MB-231 cells, 1 μM, 16 hours, Western blot
outcome_measure: Enzyme degradation CDK9 (% remaining) @ 1 μM

## Task For O=C1CC[C@H](n2nnc3ccc(N4CCC(CN5CCN(c6ccc(Nc7ncnc8c7ncn8C7CC(NC(=O)Cc8ccccc8)C7)cc6)CC5)CC4)cc3c2=O)C(=O)N1 (stereo partly drawn) , what is its reported Enzyme degradation CDK9 (% remaining) @ 1 μM?
## Result 0/0/0%

## Task For O=C1CC[C@H](N2C(=O)c3cccc(NCC(=O)N4CCC(CN5CCN(c6ccc(Nc7ncnc8c7ncn8C7CC(NC(=O)c8cccc(F)n8)C7)cc6)CC5)CC4)c3C2=O)C(=O)N1 (stereo partly drawn) , what is its reported Enzyme degradation CDK9 (% remaining) @ 1 μM?
## Result 0/0/0%

## Task For O=C1CC[C@H](N2C(=O)c3cc(F)c(N4CCC(CN5CCN(c6ccc(Nc7ncnc8c7ncn8C7CC(NC(=O)c8cccc(F)n8)C7)cc6)CC5)CC4)cc3C2=O)C(=O)N1 (stereo partly drawn) , what is its reported Enzyme degradation CDK9 (% remaining) @ 1 μM?
## Result 0/0/0%

---

system_name: CDK2 (Homo sapiens, UniProt P24941)
Construct: endogenous in cells; host or cells: MDA-MB-231
method_description: CDK protein degradation activity (Western blotting), CDK2
Type: cell-based
measurement_context: MDA-MB-231 cells, 0.1 μM, 16 hours, Western blot
outcome_measure: Enzyme degradation CDK2 (% remaining) @ 0.1 μM (%)
Quick reminder: number only, in %, skip the unit.

## Task For O=C1CC[C@H](N2C(=O)c3cccc(N4CC(CN5CCC6(CC5)CC(N5CCN(c7ccc(Nc8ncnc9c8ncn9[C@H]8C[C@@H](NC(=O)Cc9ccccc9)C8)cc7)CC5)C6)C4)c3C2=O)C(=O)N1 , what is its reported Enzyme degradation CDK2 (% remaining) @ 0.1 μM?
## Result 50

## Task For O=C1CC[C@H](N2C(=O)c3cc(F)c(N4CCC(CN5CCC(CCNc6ncnc7c6ncn7[C@H]6C[C@@H](NC(=O)c7c(Cl)cccc7Cl)C6)CC5)CC4)cc3C2=O)C(=O)N1 , what is its reported Enzyme degradation CDK2 (% remaining) @ 0.1 μM?
## Result 50

---

For each entry below, report its Enzyme degradation CDK9 (% remaining) @ 0.1 μM value.
system_name: CDK9 (Homo sapiens, UniProt P50750)
Construct: endogenous in cells; host or cells: MDA-MB-231
method_description: CDK protein degradation activity (Western blotting), CDK9
Type: cell-based
measurement_context: MDA-MB-231 cells, 0.1 μM, 16 hours, Western blot

## Task For O=C1CC[C@@H](c2ccc(OCC(=O)N3CCC(CN4CCC(c5ccc(Nc6ncnc7c6ncn7C6CC(NC(=O)Cc7ccccc7)C6)cc5)CC4)CC3)cc2)C(=O)N1 (stereo partly drawn) , what is its reported Enzyme degradation CDK9 (% remaining) @ 0.1 μM?
## Result 0/0/0%

## Task For Cc1cccc(C(=O)N[C@H]2C[C@@H](n3cnc4c(Nc5ccc(N6CCN(CC7CCN(C(=O)C8CN(c9ccc%10c(c9)C(=O)N([C@H]9CCC(=O)NC9=O)C%10=O)C8)CC7)CC6)cc5C)ncnc43)C2)n1 , what is its reported Enzyme degradation CDK9 (% remaining) @ 0.1 μM?
## Result 20/20/20%

## Task For Cc1cccc(C(=O)N[C@H]2C[C@@H](n3cnc4c(NC5CCN(CCC6CCN(C(=O)CNc7ccc8c(c7)C(=O)N([C@H]7CCC(=O)NC7=O)C8=O)CC6)CC5)ncnc43)C2)n1 (racemic) , what is its reported Enzyme degradation CDK9 (% remaining) @ 0.1 μM?
## Result 0/0/0%

## Task For Cc1cccc(C(=O)N[C@H]2C[C@@H](n3cnc4c(Nc5ccc(N6CCN(C7CC8(CCN(c9cc%10c(cc9F)C(=O)N([C@H]9CCC(=O)NC9=O)C%10=O)CC8)C7)CC6)cc5)ncnc43)C2)n1 , what is its reported Enzyme degradation CDK9 (% remaining) @ 0.1 μM?
## Result 0/0/0%

## Task For O=C1CC[C@H](N2C(=O)c3ccc(N4CC(C(=O)N5CCC(CN6CCC(CCNc7ncnc8c7ncn8C7CC(NC(=O)c8c(Cl)cccc8Cl)C7)CC6)CC5)C4)cc3C2=O)C(=O)N1 (stereo partly drawn) , what is its reported Enzyme degradation CDK9 (% remaining) @ 0.1 μM?
## Result 0/0/0%

## Task For O=C1CC[C@H](N2C(=O)c3ccc(NCC(=O)N4CCC(CN5CCN(c6ccc(Nc7ncnc8c7ncn8C7CC(NC(=O)c8c(Cl)cccc8Cl)C7)cc6)CC5)CC4)cc3C2=O)C(=O)N1 (stereo partly drawn) , what is its reported Enzyme degradation CDK9 (% remaining) @ 0.1 μM?
## Result 0/0/0%

The reported measurements were obtained from patent US20260125382A1.
